# pIC50 listing for each entry below
target: WT ALK1 (Homo sapiens, UniProt P37023); experiment: NanoBRET TE intracellular kinase assay; conditions: read-out: ALK1 IC50, HEK293 cells
Sequence (P37023 22-503): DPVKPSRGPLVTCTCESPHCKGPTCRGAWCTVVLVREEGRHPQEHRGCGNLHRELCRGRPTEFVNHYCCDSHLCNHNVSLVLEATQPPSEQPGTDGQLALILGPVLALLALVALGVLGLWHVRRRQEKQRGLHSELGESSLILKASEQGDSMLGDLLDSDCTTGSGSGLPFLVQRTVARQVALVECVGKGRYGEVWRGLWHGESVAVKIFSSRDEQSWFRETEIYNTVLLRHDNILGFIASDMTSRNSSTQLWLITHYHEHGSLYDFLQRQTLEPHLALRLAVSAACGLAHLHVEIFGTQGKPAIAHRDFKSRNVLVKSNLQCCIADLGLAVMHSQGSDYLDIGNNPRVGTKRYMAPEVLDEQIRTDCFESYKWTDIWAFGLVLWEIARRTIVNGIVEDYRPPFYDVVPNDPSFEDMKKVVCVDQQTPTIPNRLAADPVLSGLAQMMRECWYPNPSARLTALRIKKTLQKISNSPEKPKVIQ
pIC50: −log10 of the molar value.
Recorded Endpoint: pIC50

INSERT INTO results (structure, result) VALUES
  ('COc1cc(-c2nc3ccc(C(=O)NCCCN4CCN(c5ccccc5)CC4)cc3n2C2CCC2)cc(OC)c1OC', '< 4.52'),
  ('CNC(=O)[C@H]1C[C@H](n2c(-c3cc(F)cc(OC)c3)nc3ccc(C(=O)NCCCN4CCN(c5ccccc5)CC4)cc32)C1', '< 4.52'),
  ('CNC(=O)[C@H]1C[C@H](n2c(-c3ccc(OC)c(OC)c3)nc3ccc(C(=O)NCCCN4CCN(c5cccc(C)c5C)CC4)cc32)C1', '< 4.52'),
  ('COc1cc(-c2nc3ccc(C(=O)NCC4(O)CCN(Cc5ccccc5)CC4)cc3n2C2CCC2)cc(OC)c1OC', 5.07),
  ('CNC(=O)[C@H]1C[C@H](n2c(-c3cc(OC)c(OC)c(OC)c3)nc3ccc(C(=O)NCCCN(C)C)cc32)C1', '< 4.52');

Origin of measurements: paper PMC11588046
